molecular target: Fuc(a1-2)Gal(b1-4)GlcNAc(b1-3)[Fuc(a1-3)[Gal(b1-4)]GlcNAc(b1-6)]Gal(b1-4)Glc; assay: glycan array binding signal (z-score within array); higher = stronger binding; conditions: glycan notation: IUPAC condensed, linker removed
The full list was thinned out, with the strongest signals kept by preference.
In this section, each of the binders is paired with its reported glycan array binding signal (z-score).
Form: value (number only, do not type unit).

// worked examples, glycan array binding signal (z-score) included
# binder, glycan array binding signal (z-score)
records = [
    ("B936 (Bifidobacterium sp) (protein) MKNWKKAIALVASAAALVSVAACGPSNAGGSSDSGKKTVGFVAVGPEGGFRTANEKDIQKAFEDAGFDLTYSPTQNNDQQKQIQAFNKFVNDEVDAIILSSTEDSGWDDSLKKAAEAEIPVFTVDRNVDVKDAEAKKAIVAHIGPSNVWCGEQAAEFVNKNFPDGANGFILEGPAGLSVVKDRGTGWGNKVASNVKVLESQSANWSTDEAKTVTAGLLDKYKSDNPQFIFAQNDEMGLGAAQAVDAAGLKGKVKIITIDGTKNALQALVDGDLSYVIEYNPIFGKETAQAVKDYLDGKTVEKDIEIESKTFDAASAKEALDNNTRAY", -0.124),
    ("AT3G09350(27) (Arabidopsis thaliana), Q84J81 (protein) MAKDGPNWDGLLKWSLSHADGTRPTRQLSEEDRKWFMEAMQSQTVDVVKRMKEITLVMQTPEQVLVEHGVTPEDIQDLLDELQEHVESIDMANDLHSIGGLVPLLSFLKNSHANIRAKAADVVSTIVQNNPRSQELVMETNALESLLSNFTSDTDIHARTQALGAISSLIRHNKPGVTAFKLANGYAGLRDALASDSVRFQRKALNLLQYLLQEDDSDRSIATGLGFPRVMMHLASSDDAEIREAALRGLLELSREKNDGSSSIDKSDEKLRQLLEERIKGITLMSQEDLETVKEERQLVDLLWSICYNEPSSLREKGLVVLPGEDALPPDVASKLFEPPLRASAANRNATEKKDEPMKLLGP", -0.595),
    ("SynCAM (Mus musculus) (protein) MASAVLPSGSQCAAAAAVAAAAAPPGLRLRLLLLLLSAAALIPTGDGQNLFTKDVTVIEGEVATISCQVNKSDDSVIQLLNPNRQTIYFRDFRPLKDSRFQLLNFSSSELKVSLTNVSISDEGRYFCQLYTDPPQESYTTITVLVPPRNLMIDIQKDTAVEGEEIEVNCTAMASKPATTIRWFKGNKELKGKSEVEEWSDMYTVTSQLMLKVHKEDDGVPVICQVEHPAVTGNLQTQRYLEVQYKPQVHIQMTYPLQGLTREGDAFELTCEAIGKPQPVMVTWVRVDDEMPQHAVLSGPNLFINNLNKTDNGTYRCEASNIVGKAHSDYMLYVYDPPTTIPPP", -0.893),
    ("LlpB (Pseudomonas fluorescens) (protein) MGSSHHHHHHSSGLVPRGSHMASSGFRIILFNSANNGTAILPPRNCLVAGQYLESPSKRYKLILEADGNLRLYDNGVPIWVADSSVPYTYVDNRPNTNLVTCFYMQGSAFLVDRVGSRTWATIGDWIDGAADRAYLQVQDDGNVVVVDGVPRWARFGFTPAALPNRGVFYPDHGTGPLPSFPVWSWTF", -0.33),
    ("OrysaEULS2 (Oryza sativa) (protein) MVYCRANPNYAMTARNGAVVLAPANPKDEYQHWIKDMRWSTSIKDEEGYPAFALVNKATGQAIKHSLGQSHPVRLVPYNPEVMDESVLWTESRDVGNGFRCIRMVNNIYLNFDAFHGDKYHGGVRDGTDIVLWKWCEGDNQRWKIQPYYILEQKLISEEDLNSAVDHHHHHH", -0.276),
]

Consider the additional binder presented here.
Ask: Provide glycan array binding signal (z-score) value for the following binder: CC1G-11630 (Coprinopsis cinerea), A8P462 (protein) MTTEAKIKLKAVVYWELVFDYDNSSNTGEITQSYTVKISQTSTRSTFASEVSTTTIDTLTKNNQEVDVGASYGAISANVSASWEHSEEVNNMLEKTTQTSTEDTYTVETEETRSYTIGPGGMLSLFQKHFSGPGMHVAFDVFTTDLELAKERTEIDIDVDVEAIRFVREIRVVYTDIMSEAPGDHVREINGKNPDINYGFNGKFVWLVPEQTRKTAQALTNVEFVSQAESDDRYWDLAAGAGGSNRYLIPVYDTNNKDKIYELALWRSDSYITHDKVKAAGWSGTTGDINSGRGGTYLNLVWKTRHAY
Reply: -0.581
